# EXPERIMENT SUMMARY: photoluminescence quantum yield (fraction); solvent given as SMILES
# RUN PARAMETERS: in Cc1ccccc1
Measured photoluminescence quantum yield by item
Lab note: write the figure by itself, no unit.

- CHEMICAL STRING: "C1=[N+](c2ccccc2)[B-](c2ccccc2)(c2ccccc2)Oc2c1ccc1c3c(ccc21)C=[N+](c1ccccc1)[B-](c1ccccc1)(c1ccccc1)O3"
  photoluminescence quantum yield: 0.7
- CHEMICAL STRING: "Cc1ccc(C2=C3C=CC(/C=C/c4ccccc4)=[N+]3[B-](F)(F)n3c(Cl)ccc32)cc1"
  photoluminescence quantum yield: 0.69

I'd like to know its photoluminescence quantum yield. The compound in question is CCOC(=O)COc1ccc(/C=C/c2cc(C)c3n2[B-](F)(F)[N+]2=C(c4[nH]c(C)cc4C)c4ccccc4C2=C3)cc1 0.69

----------
# EXPERIMENT SUMMARY: photoluminescence quantum yield (fraction); solvent given as SMILES
# RUN PARAMETERS: in ClC(Cl)Cl
Reported photoluminescence quantum yield by item:
// no unit, no text: just the number

- CHEMICAL STRING: "Cc1ccc(C2=Cc3c4ccccc4c4ccccc4[n+]3[B-](F)(F)O2)cc1"
  photoluminescence quantum yield: 0.275
- CHEMICAL STRING: "COc1ccc(-c2nc(-c3ccccc3)c(N(C)C)[se]2)cc1"
  photoluminescence quantum yield: 0.039
- CHEMICAL STRING: "CCCCCCCCC1(CCCCCCCC)c2cc(C=O)ccc2-c2ccc(/C=C/c3ccc(N(c4ccccc4)c4ccccc4)cc3)cc21"
  photoluminescence quantum yield: 0.53
- CHEMICAL STRING: "C#CCNC1=C2C=CC=[N+]2[B-](F)(F)n2cccc21"
  photoluminescence quantum yield: 0.829

Turning now to a further compound:
# input compound: Cc1ccc(-n2c3ccccc3c3cc(C(=C(C#N)C#N)c4ccccc4)ccc32)cc1 ; wanted: its photoluminescence quantum yield 0.13

----------
# EXPERIMENT SUMMARY: photoluminescence quantum yield (fraction); solvent given as SMILES
# RUN PARAMETERS: in O
PROPERTY LABEL: photoluminescence quantum yield

Example entries begin here.
- COMPOUND: "O=C(O)C1=C/C(=C/C=[N+]2/c3cc(O)c(C[C@@H]4O[C@H](CO)[C@@H](O)C(O)[C@H]4O)cc3C[C@H]2C(=O)O)C[C@@H](C(=O)O)N1 (stereo partly drawn)"
  photoluminescence quantum yield: 0.0007
- COMPOUND: "Fc1ccc2cc3cccc[n+]3cc2c1"
  photoluminescence quantum yield: 0.34

With those in mind, consider the next compound.
Fill in the blank: the reported photoluminescence quantum yield of O=Cc1ccc(-c2ccc(O)c(-c3nc4ccccc4s3)c2)o1 is ____. 0.02

----------
# EXPERIMENT SUMMARY: photoluminescence quantum yield (fraction); solvent given as SMILES
# RUN PARAMETERS: in ClCCl
Entries whose photoluminescence quantum yield is below 0.4 take Met; entries at or above 0.4 take Not met.

- MOLECULE: "C(#Cc1cccc2nsnc12)c1ccc(-n2c3ccccc3c3ccccc32)cc1"
  CLASS NAME: "Not met"
- MOLECULE: "CC(=O)c1ccc(-c2cc3c(ccc4sccc43)s2)cc1"
  CLASS NAME: "Met"
- MOLECULE: "Cc1ccc(C)n1-c1ccc(C#N)cc1"
  CLASS NAME: "Met"

Is photoluminescence quantum yield of COc1cc(-c2nc3c4cccnc4c4ncccc4c3[nH]2)c(OC)cc1/C=C/c1nc2ccccc2[nH]1 strictly below 0.4? Not met

is_below(photoluminescence quantum yield, 0.4) for C(=C\c1cnc2ccccc2n1)/c1cnccn1 ? Met

Lab note: photoluminescence quantum yield threshold 0.4. Does this molecule come in strictly under it? CN(C)c1ccc(/C=C/c2ncc3ccccc3n2)cc1 Met

Quick check: photoluminescence quantum yield of CC[C@H](C)COc1ccc(C2=C3C(C)=C(c4ccc5ccc6cccc7ccc4c5c67)C(C)=[N+]3[B-](F)(F)n3c(C)c(-c4ccc5ccc6cccc7ccc4c5c67)c(C)c32)cc1 under 0.4? Not met

Given CCCCCCc1cc2c3c(c1)c(=C1c4ccccc4S(=O)(=O)c4ccccc41)c1cc(CCCCCC)cc4c1N3c1c(cc(CCCCCC)cc1c4=C1c3ccccc3S(=O)(=O)c3ccccc31)c2=C1c2ccccc2S(=O)(=O)c2ccccc21 , is recorded photoluminescence quantum yield strictly lower than 0.4? Not met

Problem: For the molecule CCC1(CC)c2cc(N(C)C)ccc2-c2ccc(C(F)(F)F)cc21 , is photoluminescence quantum yield under 0.4? Not met

Does the reported photoluminescence quantum yield of CN(C)c1ccc(/C=C/c2nc(N3CCOCC3)c3c([n+]2[O-])CCCC3)cc1 stay below 0.4? Met

Decide: photoluminescence quantum yield of CCCCCCN1C(=O)c2cccc3c(-c4ccc(-c5cc(-c6ccccc6)n(-c6ccccc6)n5)s4)ccc(c23)C1=O strictly below 0.4? Met

Is it true that photoluminescence quantum yield reported for O=c1cc(-c2ccccc2)oc(-c2ccc(-c3nc4ccccn4c3NC3CCCCC3)cc2)c1 is less than 0.4? Met

Does this molecule meet the criterion photoluminescence quantum yield < 0.4? CC(C)[Si]1(C(C)C)c2cc(N(C)C)ccc2-c2ccc(C(F)(F)F)cc21 Met

Input N#Cc1ncc(-c2c3ccccc3c(-c3cnc(C#N)nc3)c3ccccc23)cn1 ; condition: photoluminescence quantum yield strictly below 0.4. Does it hold? Not met
